- measurement target: glucocorticoid receptor (Homo sapiens, UniProt P04150)
- Construct: endogenous in cells; ATCC cat
- Sequence (P04150 whole entry): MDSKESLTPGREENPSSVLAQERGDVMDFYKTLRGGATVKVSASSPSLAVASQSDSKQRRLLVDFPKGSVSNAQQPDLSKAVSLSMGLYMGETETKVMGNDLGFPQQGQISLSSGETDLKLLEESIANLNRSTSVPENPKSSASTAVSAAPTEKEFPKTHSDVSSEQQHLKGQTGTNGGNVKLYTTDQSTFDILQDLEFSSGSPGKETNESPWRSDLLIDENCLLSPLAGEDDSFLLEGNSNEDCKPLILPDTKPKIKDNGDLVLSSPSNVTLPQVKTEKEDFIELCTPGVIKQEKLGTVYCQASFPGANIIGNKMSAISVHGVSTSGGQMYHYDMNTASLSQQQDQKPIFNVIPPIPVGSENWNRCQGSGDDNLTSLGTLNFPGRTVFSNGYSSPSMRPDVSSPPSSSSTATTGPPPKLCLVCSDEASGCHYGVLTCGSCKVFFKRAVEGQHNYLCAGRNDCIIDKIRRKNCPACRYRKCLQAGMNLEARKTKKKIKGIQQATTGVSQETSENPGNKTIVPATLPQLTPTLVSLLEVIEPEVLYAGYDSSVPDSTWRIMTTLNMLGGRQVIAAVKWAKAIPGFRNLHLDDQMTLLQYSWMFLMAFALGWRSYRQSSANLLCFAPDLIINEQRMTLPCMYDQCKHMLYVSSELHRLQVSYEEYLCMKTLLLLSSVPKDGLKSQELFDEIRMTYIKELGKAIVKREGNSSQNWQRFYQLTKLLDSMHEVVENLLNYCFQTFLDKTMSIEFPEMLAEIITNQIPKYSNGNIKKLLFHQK
- assay comment: Hep G2 TAT Ki: inhibition of dexamethasone-induced TAT in HepG2 cells (96 well)
- condition set: challenge of 100 nM dexamethasone, IC50 converted to Ki by Cheng and Prusoff equation
reported property: Ki (nM)

{"columns": ["compound", "result number"],
 "data": [
  ["CCn1ncc(S(=O)(=O)N2CCN(CC(C)C(F)(F)F)C(c3cc4cnn(-c5ccc(F)cc5)c4cc3C)C2)n1 (single isomer, unassigned)", 38],
  ["CO[C@H]1C[C@@H](CN2CCN(S(=O)(=O)c3cnn(C)n3)C[C@H]2c2cc3cnn(-c4ccc(F)cc4)c3cc2C)C1 (relative stereo)", 11],
  ["Cc1cc2c(cnn2-c2cnn(C)c2)cc1C1CN(S(=O)(=O)c2cnn(C)n2)CCN1CCC(F)(F)F (stereo not drawn)", 100],
  ["Cc1cc2c(cnn2-c2ccc(F)cc2)cc1C1CN(S(=O)(=O)c2cnn(C)n2)CCN1CCCC(F)(F)F (stereo not drawn)", 58]
]}

1 = Cc1cc2c(cnn2-c2ccc(F)cc2)cc1C1CN(S(=O)(=O)c2cnn(C)n2)CCN1CC(C)(C)CO (single isomer, unassigned)
2 = Cc1cc2c(cnn2-c2ccc(F)cc2)cc1C1CN(S(=O)(=O)c2cnn(C(F)F)c2)CCN1CC(C)C (single isomer, unassigned)
*Q* Name the one with the greater Ki value, either 1 or 2 as given. Use the label to indicate which entry you chose.
*A* 1
(1: 43 nM, 2: 22 nM)

###

- measurement target: glucocorticoid receptor (Homo sapiens, UniProt P04150)
- Construct: endogenous in cells; ATCC cat
- assay comment: Hep G2 TAT Ki: inhibition of dexamethasone-induced TAT in HepG2 cells (96 well)
- condition set: challenge of 100 nM dexamethasone, IC50 converted to Ki by Cheng and Prusoff equation
- Experimental: Glucocorticoid mediated activation of TAT occurs by transactivation of glucocorticoid response elements in the TAT promoter by glucocorticoid receptor-agonist complex. HepG2 cells were cultured using MEME media supplemented with 10% (v/v) foetal bovine serum; 2 mM L-glutamine and 1% (v/v) NEAA at 37° C., 5%/95% (v/v) CO2/air. Compounds were serially half log diluted in 100% (v/v) dimethylsulphoxide from a 10 mM stock. […]
reported property: Ki (nM)

Example cases with answers are listed next.
{"columns": ["compound", "result number"],
 "data": [
  ["Cc1cc2c(cnn2-c2ccc(F)cc2)cc1C1CN(S(=O)(=O)C2CCC2)CCN1CCC(F)(F)F (single isomer, unassigned) [Example 140]", 47],
  ["Cc1cc2c(cnn2-c2ccc(F)cc2)cc1C1CN(S(=O)(=O)c2cnn(C)n2)CCN1C(=O)C(C)C (stereo not shown) [Example 35]", 770],
  ["Cc1cc2c(cnn2-c2ccc(=O)n(C)c2)cc1C1CN(S(=O)(=O)c2cnn(C)n2)CCN1CCC(F)(F)F (stereo not shown) [Example 165]", 81],
  ["Cc1cc2c(cnn2-c2ccc(F)cc2)cc1[C@@H]1CN(S(=O)(=O)c2cnn(C)n2)CCN1C[C@H]1C[C@@H](O)C1 (racemic) [Example 154]", 24],
  ["Cc1cc2c(cnn2-c2ccc(F)cc2)cc1C1CN(S(=O)(=O)c2cnn(C)n2)CCN1CC1CC(C)(C)C1 (single isomer, unassigned) [Example 119]", 19],
  ["Cc1cc2c(cnn2-c2ccc(F)cc2)cc1[C@@H]1CN(S(=O)(=O)c2cnn(C)n2)CCN1C[C@H](C)F (racemic) [Example 158]", 45],
  ["Cc1cc2c(cnn2-c2ccc(F)cc2)cc1C1CN(S(=O)(=O)c2cnn(C)n2)CCN1c1ccccc1 (stereo not shown) [Example 86]", 180],
  ["Cc1cc2c(cnn2-c2ccc(F)cc2)cc1C1CN(S(=O)(=O)Cc2ccc(C#N)cc2)CCN1CC(C)C (single isomer, unassigned) [Example 114]", 55]
]}

P = Cc1cc2c(cnn2-c2ccc(F)cc2)cc1C1CN(S(=O)(=O)N(C)C2CC2)CCN1CC(C)C (single isomer, unassigned) [Example 62]
Q = CCn1ncc(S(=O)(=O)N2CCN(CC(C)C)C(c3cc4cnn(-c5ccc(F)cc5)c4cc3C)C2)n1 (single isomer, unassigned) [Example 48]
R = Cc1cc2c(cnn2-c2ccc(F)cc2)cc1C1CN(S(=O)(=O)C2CC2)CCN1CC(C)C (stereo not shown) [Example 8]
*Q* Provide the items ranked by increasing Ki. Your answer should be the labels, listed in the requested order.
*A* Q, P, R

I = Cc1cc2c(cnn2-c2ccc(F)cc2)cc1C1CN(S(=O)(=O)c2cnn(C)n2)CCN1CC(C)C (stereo not shown) [Example 4]
II = CCCn1ncc(S(=O)(=O)N2CCN(CC(C)C)C(c3cc4cnn(-c5ccc(F)cc5)c4cc3C)C2)n1 (stereo not shown) [Example 41]
III = Cc1cc2c(cnn2-c2ccc(F)cc2)cc1C1CN(S(=O)(=O)c2cnn(CC(F)(F)F)n2)CCN1CC(C)C (single isomer, unassigned) [Example 95]
IV = Cc1cc2c(cnn2-c2ccc(F)cc2)cc1C1CN(S(=O)(=O)c2cnn(CC(F)(F)F)c2)CCN1CC(C)C (single isomer, unassigned) [Example 110]
*Q* Put the entries in order of Ki, starting with the largest number. Your answer should be the labels, listed in the requested order.
*A* III, II, I, IV
